Please enter Met where glass transition temperature is greater than or equal to 90 °C, and Not met where it is lower.

molecule: *CC(*)(C)C(=O)OC1(C)CCOC(=O)C1 (repeat unit)
className: Met
//
molecule: *CCCCCCNC(=O)CCCCCCCC1C(CCCCCCCC(=O)N*)C=CC(CCCCCC)C1CCCCCCCC (repeat unit)
className: Not met
//
molecule: *CCCC1(C)CCN(C(=O)CCCC(=O)N2CCC(*)(C)CC2)CC1 (repeat unit)
className: Not met
//
molecule: *Oc1cc(C(=O)c2ccccc2)c(Oc2ccc(*)cc2)cc1C(=O)c1ccccc1 (repeat unit)
className: Met
//
molecule: *c1ccc(N2C(=O)c3ccc(C(=O)c4ccc5c(c4)C(=O)N(c4ccc(-c6nc7cc(Oc8ccc9nc(-c%10ccccc%10)c(*)nc9c8)ccc7nc6-c6ccccc6)cc4)C5=O)cc3C2=O)cc1 (repeat unit)
className: Met
//
molecule: *Oc1ccc2ccc(Oc3ccc(/C(=N/c4ccc(/N=C(\c5ccccc5)c5ccc(*)cc5)cc4)c4ccccc4)cc3)cc2c1 (repeat unit)
className: Met
//
molecule: *CCCCCCCCCCCC(=O)Oc1ccc(C(C)(C)c2ccc(C(C)(C)c3ccc(OC(=O)c4ccc5c(c4)C(=O)N(*)C5=O)cc3)cc2)cc1 (repeat unit)
className: Met
//
molecule: *c1ccc(-c2ccc(N3C(=O)c4ccc(Oc5c(C)cc(C(C)(C)c6cc(C)c(Oc7ccc8c(c7)C(=O)N(*)C8=O)c(C)c6)cc5C)cc4C3=O)cc2C(F)(F)F)c(C(F)(F)F)c1 (repeat unit)
className: Met
//
molecule: *c1ccc(Oc2ccc(-c3cnc4cc5ncc(*)nc5cc4n3)cc2)cc1 (repeat unit)
className: Met
//
molecule: *CC(*)OC(=O)C(Cl)(Cl)Cl (repeat unit)
className: Not met
//
molecule: *Oc1ccc(C(c2ccccc2)(c2ccccc2)c2ccc(Oc3ccc4c(=O)n5c6cc(-c7ccc8c(c7)nc7c9ccc(*)c%10cccc(c(=O)n87)c%109)ccc6nc5c5cccc3c45)cc2)cc1 (repeat unit)
className: Met
//
molecule: *c1ccc(C(=O)Nc2ccc(N3C(=O)c4ccc(-c5ccc6c(c5)C(=O)N(*)C6=O)cc4C3=O)cc2)cc1 (repeat unit)
className: Met
//
molecule: *c1ccc(Oc2ccc(C(c3ccc(Oc4ccc(-c5nc(*)nc(-c6ccccc6)n5)cc4)cc3)(C(F)(F)F)C(F)(F)F)cc2)cc1 (repeat unit)
className: Met
//
molecule: *c1ccc(N2C(=O)c3ccc(Oc4ccc(Sc5ccc(Oc6ccc7c(c6)C(=O)N(*)C7=O)cc5)cc4)cc3C2=O)cc1 (repeat unit)
className: Met
//
molecule: *c1cccc(P(=O)(c2ccc(C(F)(F)F)cc2)c2cccc(-n3c(=O)c4c(-c5ccccc5)c5c(=O)n(*)c(=O)c5c(-c5ccccc5)c4c3=O)c2)c1 (repeat unit)
className: Met
//
molecule: *c1ccc2c(c1)C(=O)N(c1cccc3c(N4C(=O)c5ccc(C(*)(C(F)(F)F)C(F)(F)F)cc5C4=O)cccc13)C2=O (repeat unit)
className: Met
//
molecule: *Oc1ccc(C(=O)c2ccccc2)c(-c2cc(Oc3ccc(-c4ccc(*)cc4)cc3)ccc2C(=O)c2ccccc2)c1 (repeat unit)
className: Met
//
molecule: *Oc1ccc(C(c2ccc(OC(*)=O)cc2)C2CC3CC2C2C4CCC(C4)C32)cc1 (repeat unit)
className: Met
//
molecule: *CC(c1ccccc1)C1C(=O)N(C)C(=O)C1* (repeat unit)
className: Met
//
molecule: *CC(*)C(=O)Oc1cccc(C(=O)OCC)c1 (repeat unit)
className: Not met
//
molecule: *C/C=C/CS(*)(=O)=O (repeat unit)
className: Not met
//
molecule: *CCCCCCCCCCNC(=O)NCc1ccc(CNC(=O)N*)cc1 (repeat unit)
className: Not met
//
molecule: *OP(=O)(Oc1ccc(NC(=O)Oc2ccc(-c3ccc(OC(=O)Nc4ccc(*)cc4)cc3)cc2)cc1)c1ccccc1 (repeat unit)
className: Not met
//
molecule: *Oc1ccc(Oc2ccc(S(=O)(=O)c3ccc(-c4ccc(-c5ccc(S(=O)(=O)c6ccc(*)cc6)cc5)cc4)cc3)cc2)cc1 (repeat unit)
className: Met
//
molecule: *CCCCCCSS* (repeat unit)
className: Not met
//
molecule: *Nc1ccc(Oc2ccc(Nc3ccc4c(c3)c3cc(*)ccc3n4CC(CC)CCCC)cc2)cc1 (repeat unit)
className: Met
//
molecule: *Cc1ccc(CSSS*)cc1 (repeat unit)
className: Not met
//
molecule: *CC(*)C(=O)c1ccc(CCC)cc1 (repeat unit)
className: Not met
//
molecule: *NC1CCC(CCC2CCC(NC(=O)CCCCCCCCC(*)=O)CC2)CC1 (repeat unit)
className: Met
//
molecule: *c1ccc(C(=O)Nc2ccc(Oc3ccc(NC(=O)c4ccc(Oc5ccc(-c6nn(*)c(=O)c7ccccc67)cc5)cc4)cc3)cc2)cc1 (repeat unit)
className: Met

---

Below, each entry is listed with its recorded glass transition temperature.
valueType: glass transition temperature (°C)

molecule: *c1c(C)c(C)c(N2C(=O)c3cc4c(cc3C2=O)C(c2ccccc2)(C(F)(F)F)c2cc3c(cc2O4)C(=O)N(*)C3=O)c(C)c1C (repeat unit)
valueType: glass transition temperature
val: 394.00
--
molecule: *Sc1ccc2c(c1)C(=O)N(c1cc(Cc3ccc(N4C(=O)c5cccc(*)c5C4=O)c(C)c3)ccc1C)C2=O (repeat unit)
valueType: glass transition temperature
val: 257.50
--
molecule: *Oc1ccc2c(c1)C(=O)N(c1ccc(P(=O)(c3ccccc3)c3ccc(N4C(=O)c5ccc(*)cc5C4=O)cc3)cc1)C2=O (repeat unit)
valueType: glass transition temperature
val: 311.00
--
molecule: *c1ccc(Cc2ccc(-n3c(=O)c4ccc5c(=O)n(*)c(=O)c5c4c3=O)c(C)c2)cc1C (repeat unit)
valueType: glass transition temperature
val: 354.00
--
molecule: *c1ccc2c(c1)C(=O)N(c1ccc(P(=O)(c3ccccc3)c3ccc(N4C(=O)c5ccc(C(*)(C(F)(F)F)C(F)(F)F)cc5C4=O)cc3)cc1)C2=O (repeat unit)
valueType: glass transition temperature
val: 345.00
--
molecule: *C1=C(Cl)C(=O)N(c2cccc(N3C(=O)C(Cl)=C(Oc4ccc(C(C)(C)c5ccc(*)cc5)cc4)C3=O)c2)C1=O (repeat unit)
valueType: glass transition temperature
val: 163.00

---

Threshold 70 °C: glass transition temperature strictly smaller gives fulfilled, otherwise not fulfilled.

molecule: *c1ccc2c(c1)C(=O)N(c1ccc(-c3ccc(N4C(=O)c5ccc(C(*)(C(F)(F)F)C(F)(F)F)cc5C4=O)c(OCCOc4ccc5c(C)cc(=O)oc5c4)c3)cc1OCCOc1ccc3c(C)cc(=O)oc3c1)C2=O (repeat unit)
className: not fulfilled
//
molecule: *c1ccc(*)[nH]1 (repeat unit)
className: not fulfilled
//
molecule: *c1ccc(-c2ccc(-c3ccc([Si](CCCC)(CCCC)[Si](*)(CCCC)CCCC)s3)s2)s1 (repeat unit)
className: fulfilled
//
molecule: *CCCCCCC(c1ccc(O)cc1)C(*)c1ccc(O)cc1C (repeat unit)
className: fulfilled
//
molecule: *c1ccc(Oc2ccc(C(=O)c3ccc(Oc4ccc(-c5nnc(*)c6c(-c7ccc(F)cc7)c(-c7ccc(F)cc7)c(-c7ccc(F)cc7)c(-c7ccc(F)cc7)c56)cc4)cc3)cc2)cc1 (repeat unit)
className: not fulfilled
//
molecule: *Oc1ccc(C(*)=O)cc1CCCCC (repeat unit)
className: fulfilled

---

glass transition temperature: recorded values

molecule: *Oc1ccc(Oc2ccc(C(=O)c3ccc(Oc4ccc(Oc5ccc(C(=O)c6ccc(*)c(C(C)C)c6)cc5)cc4)cc3)cc2C(C)C)cc1 (repeat unit)
glass transition temperature / °C: 145.00
--
molecule: *CC(*)C(=O)OC1CCCCC1 (repeat unit) [Poly(cyclohexyl acrylate)]
glass transition temperature / °C: 20.42
--
molecule: *C(F)(F)C(*)(F)c1c(F)c(F)c(F)c(F)c1F (repeat unit)
glass transition temperature / °C: 194.00
--
molecule: *Oc1ccc(C2(c3ccc(OC(=O)CCCCC(*)=O)cc3)c3cc(N(C)C)ccc3-c3ccc([N+](=O)[O-])cc32)cc1 (repeat unit)
glass transition temperature / °C: 150.00
--
molecule: *CCOCCOC(=O)/C=C/C(=O)O* (repeat unit)
glass transition temperature / °C: -8.20
--
molecule: *C(=O)Nc1ccc(Cc2ccc(N3C(=O)CC(N4C(=O)c5ccc(*)cc5C4=O)C3=O)cc2)cc1 (repeat unit)
glass transition temperature / °C: 123.00
--
molecule: *CC(*)OC(=O)c1ccc(C(C)(C)C)cc1 (repeat unit)
glass transition temperature / °C: 121.00
--
molecule: *c1cc(C(=O)NCCCCCC)cc(N2C(=O)c3ccc(-c4ccc5c(c4)C(=O)N(*)C5=O)cc3C2=O)c1 (repeat unit)
glass transition temperature / °C: 256.90
--
molecule: *CC(*)(C)c1ccc2ccccc2c1 (repeat unit)
glass transition temperature / °C: 208.00
--
molecule: */C(CC)=C(/*)c1ccccc1 (repeat unit)
glass transition temperature / °C: 200.00
--
molecule: *CCC1CC(*)C2C3CCC(C3)C12 (repeat unit)
glass transition temperature / °C: 164.00
--
molecule: *C(=O)NCCNC(=O)c1ccc(N2C(=O)c3ccc(*)cc3C2=O)cc1 (repeat unit)
glass transition temperature / °C: 235.00
--
molecule: *O[Si](C)(C)O[Si](C)(C)O[Si](C)(C)c1ccc(Oc2ccc([Si](*)(C)C)cc2)cc1 (repeat unit)
glass transition temperature / °C: -37.00
--
molecule: *Nc1cc([N+](=O)[O-])c(NC(=O)CCCCCCCCC(*)=O)cc1/C=C/c1ccc(N(C)C)cc1 (repeat unit)
glass transition temperature / °C: 159.00
--
molecule: *c1ccc(C2(c3ccc(-c4cc(-c5ccccc5)c5cc(-c6ccc7nc(*)cc(-c8ccccc8)c7c6)ccc5n4)cc3)c3ccccc3-c3ccccc32)cc1 (repeat unit)
glass transition temperature / °C: 420.00
--
molecule: *CCN(*)C(=O)c1cc(F)c(F)cc1F (repeat unit)
glass transition temperature / °C: 105.00
--
molecule: *CC(*)(C)C(=O)OCc1ccc(/C=C/C(=O)C2c3ccccc3C(=O)c3ccccc32)cc1 (repeat unit)
glass transition temperature / °C: 163.00
